Entry source: the RNAGym collection of RNA variant scans (doi:10.7554/elife.80360)

B1: Hairpin Ribozyme (parent)
chain: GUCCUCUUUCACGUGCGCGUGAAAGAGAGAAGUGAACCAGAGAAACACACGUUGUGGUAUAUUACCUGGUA

- Variants of: B1
- protocol: self-cleavage, relative activity (ratio to wild type); higher = more cleavage; co-transcriptional
measured-metric: self-cleavage

variant-id	self-cleavage
G34U A59U	0.192
G15C A41G	1.04
A43G A47G	0.196
G17A C66A	0.26
G32A A36C	0.145
U60C C66A	0.31
C38U U62A	0.128
C48U	0.158
A41C A49C	0.217
U52A U63A	0.424

For each entry beneath this line, provide reported self-cleavage.
1. U20C A59C
2. A23C U62G
3. C12A A22C
4. A23G G54U

**Result**
[0.185, 0.0867, 0.575, 0.586]

Below is a list of variants. For each, state its recorded self-cleavage.
1. C46G G51C
2. A23C C37A

**Result**
0.0873
0.18
